FYI, the data here is from patent US20260250290A1.

# IC50 per record follows
Target: full length SGK1 (Homo sapiens)
Construct: 125 μM full length SGK1 (Life Technologies Part #PR7358A); purchased Life Technologies PR7358A
Sequence (O00141 whole entry): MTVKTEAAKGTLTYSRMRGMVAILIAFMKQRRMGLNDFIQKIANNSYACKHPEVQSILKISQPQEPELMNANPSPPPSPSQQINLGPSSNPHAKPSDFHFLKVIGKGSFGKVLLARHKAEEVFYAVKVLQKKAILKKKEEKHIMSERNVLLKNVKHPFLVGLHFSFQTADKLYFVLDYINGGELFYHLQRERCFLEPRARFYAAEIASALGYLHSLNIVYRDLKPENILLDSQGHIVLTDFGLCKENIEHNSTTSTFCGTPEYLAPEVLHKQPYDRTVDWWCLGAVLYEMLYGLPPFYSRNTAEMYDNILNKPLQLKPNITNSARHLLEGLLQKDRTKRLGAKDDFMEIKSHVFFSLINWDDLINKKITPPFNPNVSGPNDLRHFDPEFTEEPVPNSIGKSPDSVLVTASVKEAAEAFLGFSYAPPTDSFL
Test: SGK1 inhibition Assay A (Caliper LabChip electrophoretic separation of fluorescent peptide substrate and phosphorylated product)
Format: biochemical
Settings: Assay A; 20 μM ATP, 40 min incubation; read-out: SGK1 IC50
Counter-ions that a name gives are not always drawn.
Could you give me the number in nM? Just the number is fine.

COC(=O)N1CC=C(c2cc(N3CCC[C@@H](NC(=O)c4sc(Cl)cc4OC4CN(C5CCOCC5)C4)C3)c3c(N)ncnn23)C1: 73

Which measured IC50 value corresponds to CS(=O)(=O)N1CC=C(c2cc(N3CCC[C@@H](NC(=O)c4ccnc(F)c4)C3)c3c(N)ncnn23)C1 [Example 117, TFA] ?
6

Lookup Nc1ncnn2c(C3=CCN(C(=O)[C@H]4CCCN4)C3)cc(N3CCC[C@@H](NC(=O)c4ccc(Cl)s4)C3)c12 [Example 889, TFA]
21

Lookup "CC(=O)N1CC=C(c2cc(N3CCC[C@@H](NC(=O)c4ccn(CC(F)F)n4)C3)c3c(N)ncnn23)C1"
51

Lookup Nc1ncnn2c(C3=CCN(C(=O)C4CCCCO4)C3)cc(N3CCC[C@@H](NC(=O)c4ccc(Cl)s4)C3)c12 (stereo partly shown)
8

Lookup CN(C)CCOc1cc(Cl)sc1C(=O)N[C@@H]1CCCN(c2cc(-c3ccnc(F)c3)n3ncnc(N)c23)C1 [Example 149, TFA]
1

Lookup N#Cc1ccc(-c2cc(N3CCC[C@@H](NC(=O)c4sc(Cl)cc4OC4CCNC4)C3)c3c(N)ncnn23)cn1 (stereo partly shown)
12
